FYI, the data here is from ChEMBL document CHEMBL4715733.

# TESTED_TARGET: Indoleamine 2,3-dioxygenase 1 (Homo sapiens, UniProt P14902)
# Sequence (P14902 whole entry): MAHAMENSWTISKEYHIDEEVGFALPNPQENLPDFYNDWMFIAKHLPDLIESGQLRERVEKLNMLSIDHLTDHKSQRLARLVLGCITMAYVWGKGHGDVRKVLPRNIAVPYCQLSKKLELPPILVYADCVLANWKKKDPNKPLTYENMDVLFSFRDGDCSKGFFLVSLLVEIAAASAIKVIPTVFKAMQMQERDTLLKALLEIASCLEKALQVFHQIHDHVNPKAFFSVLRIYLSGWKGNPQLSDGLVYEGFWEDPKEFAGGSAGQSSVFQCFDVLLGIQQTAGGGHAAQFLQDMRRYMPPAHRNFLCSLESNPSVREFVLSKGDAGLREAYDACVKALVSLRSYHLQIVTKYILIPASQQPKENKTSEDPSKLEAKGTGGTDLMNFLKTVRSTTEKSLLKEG
# METHOD_DESCRIPTION: Inhibition of recombinant human IDO1 assessed as N-formylkynurenine formation using L-tryptophan as substrate measured after 1.5 hrs by HPLC analysis
Please go through the items and note down their IC50.
Numbers only, in nM.

Solved cases (3 shown):
What value of measured IC50 is listed for O=[N+]([O-])c1ccc(N/C(Cc2ccc(Cl)cc2)=N\O)c2nonc12 ?
78

For O=[N+]([O-])c1ccc(N/C(Cc2ccc(Cl)c(Cl)c2)=N\O)c2nonc12 , what is its reported IC50?
53

Tell me the measured IC50 of O=[N+]([O-])c1ccc(N/C(=N\O)c2ccc(F)cc2)c2nonc12 , please.
60

Could you tell me IC50 for each of these compounds? They are listed below.
1. O=[N+]([O-])c1ccc(N/C(=N\O)c2ccc(F)c(Br)c2)c2nonc12
2. O=[N+]([O-])c1ccc(N/C(=N\O)c2ccccc2F)c2nonc12
3. O=[N+]([O-])c1ccc(N/C(Cc2ccc(F)cc2)=N\O)c2nonc12

106
56
73
